- Study system: Carbonic anhydrase 2 (Homo sapiens) (UniProt P00918)
- Assay comment: CAII small-molecule binders, profiling panel, biochemical, small-molecule microarray, Alexa647-labelled CAII (AID 1122)
- Experimental conditions: CAII-A647 binding fluorescence, higher = more signal
The threshold is inclusive: composite z-score of exactly 0.6 counts as true (1); values below receive false (0).

C=CCOC(=O)[C@H]1[C@@H]2C(=O)O[C@@H](c3ccccc3)[C@@H](c3ccccc3)N2[C@@H](c2ccc(OCCOC(=O)[C@H]3C[C@H]4C(=O)N[C@@H](CCCCNC(C)=O)C(=O)N4[C@H]3c3ccc(O)cc3)cc2)[C@]12C(=O)Nc1ccc(I)cc12 :: false (0)
Cc1nc2cc(Br)ccc2c(=O)o1 :: true (1)
C=CCNC(=O)[C@@H]1[C@H]2C(=O)O[C@H](c3ccccc3)[C@H](c3ccccc3)N2[C@H](c2ccc(OCCO)cc2)[C@@]12C(=O)Nc1ccc(C#CCC(C(=O)OC)C(=O)OC)cc12 :: true (1)
CC#CC(=O)Oc1ccccc1C=CC(=O)OCC :: false (0)
O=C(NCCN1CCOCC1)[C@@H]1c2ccccc2C(=O)N(C2CCCCC2)[C@H]1c1ccc(CO)cc1 :: true (1)

Attention now shifts to the item below.
Exercise: Hi, just wondering whether `O=C(NC1CC1)[C@@H]1c2ccccc2C(=O)N(Cc2ccccc2Cl)[C@H]1c1ccc(CO)cc1` shows composite z-score of 0.6 or higher.
Key: true (1)

* * *

- Assay comment: HepG2 liver cancer cell viability effects, profiling panel, resazurin fluorescence, 24 h, PK04 Diversity Set (AID 1172); note: test concentration not given here
- Experimental conditions: higher = more signal
The threshold is inclusive: z-score of exactly 0.2 counts as yes (1); values below receive no (0).

Please review the entries below; each comes with its answer.
COCC(=C=CC[C@@H](O)c1cccc(OCCO)c1)C[C@@H](O)c1ccccn1 :: yes (1)
CCCCCCc1nc(-c2ccc(OC)nc2)cc2c1[Si](C(C)C)(C(C)C)O[C@H]2c1ccccc1 :: no (0)
CCCC[C@H]1OB(O)C[C@H]2C1=C(COC)C[C@H]1C(=O)N(C)C(=O)[C@H]12 :: no (0)
Cc1ccc(N2C(=O)c3ccccc3[C@@H](C(=O)NC3CC3)[C@@H]2c2ccc(CO)cc2)nc1 :: no (0)

Attention now shifts to the item below.
Exercise: Hi, just wondering whether CN1C(=O)C2C=CC(C(O)C3CC=CCC3)N(N(c3ccccc3)c3ccccc3)C2C1=O (stereo not given) shows z-score of 0.2 or higher.
Key: no (0)

* * *

Please respond with reported composite z-score for every item in the list.
- System: Plasmodium falciparum Sir2 (PF13_0152, Sir2A)
- Assay comment: pfSir2 binders on small-molecule microarrays, primary screen, biochemical, small-molecule microarray, 635 nm fluorescence (AID 1098);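 note: score merges spot fluorescence intensity with its signal-to-noise ratio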
- Experimental conditions: small-molecule microarray binding, fluorescence 635 nm; higher = more signal
One number for each entry.

COc1cccc(-c2cccc(=O)o2)c1 :: 1.37

Batch request: composite z-score for each of the following compounds.
1. COCCOC(=O)N1C(=O)[C@@]2(c3cc(C#CCC(C(=O)OC)C(=O)OC)ccc31)[C@H](c1ccccc1OCCO)N1[C@H](c3ccccc3)[C@H](c3ccccc3)OC(=O)[C@H]1[C@@H]2C(=O)NC[C@H](O)c1ccccc1
2. O=C1[C@@]23C=C(Br)[C@H](C[C@@H]2CCOC3)[C@@]12CO2
3. CCOC(=O)C[C@H]1[C@H](OC(=O)c2ccc(-c3ccccc3)cc2)[C@@H](NC(=O)Cc2ccc(OC)cc2)c2cc(OCCCO)ccc2N1C(=O)c1ccccc1
4. O=C(N1CCCCC1)[C@]1(Cc2ccccc2)N=C(c2ccc(OCCCO)cc2)O[C@@H]1c1ccccc1
5. COCCOC(=O)N1C(=O)[C@@]2(c3ccccc31)[C@H](c1ccc(O)cc1)N1[C@H](c3ccccc3)[C@H](c3ccccc3)OC(=O)[C@H]1[C@@H]2C(=O)Nc1nc2ccccc2s1
6. CC(C)N1C(=O)C[C@@](C(=O)NCC(F)(F)F)(c2ccc([N+](=O)[O-])cc2)[C@H]1c1ccc(CO)cc1
7. COC(=O)[C@@]1(Cc2ccccc2)[C@H]2c3cc(C(=O)N(C)C)n(Cc4ccsc4Br)c3C[C@H]2CN1C(=O)c1ccccc1

Key:
1.36
0.204
-0.168
1.05
1.39
1.42
-0.0533

Batch request: composite z-score for each of the following compounds.
1. C=C(CCCC)/C(=C/C[C@H](OC(C)=O)c1ccccc1OCCO)c1cc(C(=O)OC)ccc1OC
2. CCC[C@@H]1C[C@@]1(CCC)[C@@H](NC(=O)c1ccccc1)c1cccc(Cl)c1
3. C=C(CCCC)/C(=C/C[C@@H](OC(=O)c1ccncc1)c1ccc(OCCO)cc1)c1cc(C(=O)OC)ccc1OC
4. CN1C(=O)C2C=CC(C(O)c3ccccc3)N(N(c3ccccc3)c3ccccc3)C2C1=O (stereo not given)
5. CO[C@H]1O[C@H](CO)[C@@H](OC(=O)Nc2ccc(Oc3ccccc3)cc2)[C@H](OC(=O)Nc2ccc3c(c2)OCO3)[C@H]1OC(=O)Nc1ccc2c(c1)OCO2
6. NC(=O)NCC#Cc1ccc2c(c1)[C@]1(C(=O)N2)[C@H](c2ccccc2OCCO)N2[C@H](c3ccccc3)[C@H](c3ccccc3)OC(=O)[C@H]2[C@@H]1C(=O)Nc1nc2ccccc2s1
7. CCOC(=O)C1=CC[C@@H](c2ccccc2)N(S(=O)(=O)c2ccc(C)cc2)[C@H]1c1ccccc1C

Key:
1. 1.3
2. -0.12
3. 0.0247
4. 1.59
5. 1.26
6. 0.134
7. 1.42

* * *

- Assay comment: E. coli acrAB mutant growth effects, primary screen, E. coli filamentation inducers, strain DRC39, OD650, 48 h (AID 1179);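 note: screen aims at cell division blockers that make cells filament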
- Experimental conditions: E. coli DRC39 delta-acrAB growth, higher = more signal, called active from +8 up or from −8 down
Please respond with reported z-score for every item in the list.
Answers are plain numbers.

The cases that follow already have their z-score on record.
COc1ccc(C#Cc2ccc3c(c2)[C@]2(C(=O)N3)[C@H](C(=O)Nc3nc4ccccc4s3)[C@H]3C(=O)O[C@H](c4ccccc4)[C@H](c4ccccc4)N3[C@@H]2c2ccc(O)cc2)cc1 :: -0.0528
CN1C(=O)C2C=CC(C(O)c3ccc([N+](=O)[O-])cc3)N(N3CCCCC3)C2C1=O (centres undefined) :: -1.24
NC(=O)NCC#Cc1ccc2c(c1)[C@]1(C(=O)N2)[C@H](c2ccccc2OCCO)N2[C@H](c3ccccc3)[C@H](c3ccccc3)OC(=O)[C@H]2[C@@H]1C(=O)Nc1nc2ccccc2s1 :: 0.24

Batch request: z-score for each of the following compounds.
1. CCC[C@@H]1C[C@@]1(CCC)[C@@H](NC(=O)c1ccccc1)c1cccc(Cl)c1
2. CC(C)N1C(=O)C[C@@](C(=O)NCC(F)(F)F)(c2ccc([N+](=O)[O-])cc2)[C@H]1c1ccc(CO)cc1
3. C=C[C@@H](COC(=O)OC(C)(C)C)N(Cc1ccc(OC)cc1)S(=O)(=O)c1ccc(Br)cc1

Key:
1: -0.514; 2: 0.629; 3: -0.667

Batch request: z-score for each of the following compounds.
1. CC(C)C(O)C1C=CC2C(=O)NC(=O)C2N1Nc1ccc(Cl)cc1Cl (centres undefined)
2. COC(=O)[C@@]1(Cc2ccc(OC)cc2)[C@H]2c3cc(C(=O)N4CCCC4)n(Cc4ccc(O)c(OC)c4)c3C[C@H]2CN1C(=O)c1ccccc1
3. CN(C)CCCCCCNC(=O)[C@H]1C[C@H]2C(=O)N[C@@H](CCCCN)C(=O)N2[C@H]1c1cccc(OCCO)c1
4. CO[C@H]1O[C@H](CO)[C@@H](OC(=O)Nc2ccccc2)[C@H](OC(=O)Nc2ccccc2)[C@@H]1OC(=O)Nc1ccccc1
5. CNS(=O)(=O)c1ccc(C)cc1
6. Cc1ccccc1C(O)C1C=CC2C(=O)N(c3ccccc3)C(=O)C2N1Nc1ccc(C(C)C)cc1 (centres undefined)
7. C=CCNC(=O)[C@@H]1[C@H]2C(=O)O[C@H](c3ccccc3)[C@H](c3ccccc3)N2[C@H](c2ccc(O)cc2)[C@@]12C(=O)Nc1ccc(C#CCNC(N)=O)cc12
8. CC(C)C[C@@H]1NC(=O)[C@H](C(C)C)NC(=O)[C@@]23C(=O)N[C@@H](Cc4ccccc4)C2[C@H](C)[C@@]2(C)O[C@H]2C3/C=C/CC/C=C/CNC1=O (some centres undefined)

Key:
1. -0.527
2. -0.0429
3. -0.02
4. 0.667
5. 0.774
6. -1.14
7. -0.124
8. 0.408

Batch request: z-score for each of the following compounds.
1. CC(C)c1ccc(NN2C(C(O)c3ccc(B(O)O)cc3)C=CC3C(=O)N(c4ccccc4)C(=O)C32)cc1 (centres undefined)
2. COCCOC(=O)N1C(=O)[C@@]2(c3cc(C#CCC(C(=O)OC)C(=O)OC)ccc31)[C@H](c1ccccc1OCCO)N1[C@H](c3ccccc3)[C@H](c3ccccc3)OC(=O)[C@H]1[C@@H]2C(=O)NC[C@H](O)c1ccccc1
3. O=C1c2ccccc2[C@](Cc2ccccc2I)(C(=O)NCC(F)(F)F)[C@H](c2ccc(CO)cc2)N1Cc1ccccc1Cl
4. CC(C)N1C(=O)c2ccccc2[C@](C)(C(=O)NCCN2CCOCC2)[C@@H]1c1ccc(CO)cc1
5. CCOC(=O)C[C@H]1[C@H](OC(=O)c2ccc(-c3ccccc3)cc2)[C@@H](NC(=O)Cc2ccc(OC)cc2)c2cc(OCCCO)ccc2N1C(=O)c1ccccc1
6. COc1ccc([Si](C)(C)[C@@H]2[C@@H](CCO)O[C@]3(C(=O)N(Cc4ccc(N(C=O)c5ccccc5)cc4)c4ccccc43)[C@H]2C)cc1
7. COC(=O)[C@@]1(Cc2ccc(OC)cc2)[C@H]2c3cc(C(=O)N4CCCC4)n(Cc4ccc(C)c(F)c4F)c3C[C@H]2CN1C(=O)c1ccccc1

Key:
-0.543
0.382
0.53
-0.582
0.339
-0.339
-0.237

Batch request: z-score for each of the following compounds.
1. CCC[C@@H]1C[C@@]1(CCC)[C@@H](NS(=O)(=O)c1cccc2cccnc12)c1ccc(Cl)cc1
2. NCCCCCNC(=O)[C@@H]1C[C@@H]2C(=O)N[C@@H](Cc3ccccc3)C(=O)N2[C@@H]1c1ccc(O)cc1
3. COC(=O)[C@@]1(Cc2ccc(OC)cc2)[C@H]2c3cc(C(=O)N(C)C)n(Cc4ccccn4)c3C[C@H]2CN1C(=O)c1ccccc1
4. C=C(COC)C(=O)CC[C@@H](OC(C)=O)c1ccc(CO)o1

Key:
1. -0.0357
2. -0.384
3. -0.6
4. -0.107
